Recorded values, source ChEMBL document CHEMBL3352035.

- Method Notes: cells
- Condition Set: Homo sapiens, KBVIN, 72 h
- Description: Cytotoxicity against multidrug-resistant human KBVIN cells after 72 hrs sulforhodamine B colorimetric assay
pIC50: −log10 of the molar value.
Classification field: true (1) = pIC50 at or over 7; false (0) = pIC50 under 7.

Input line: Please tell me: is the molecule `CC[C@@]1(O)C(=O)OCc2c1cc1n(c2=O)Cc2c-1nc1ccccc1c2CNCCO` at or over 7 in terms of pIC50?
Output line: false (0)

Input line: Please tell me: is the molecule `CC[C@@]1(O)C(=O)OCc2c1cc1n(c2=O)Cc2c-1nc1ccccc1c2CNc1ccccc1` at or over 7 in terms of pIC50?
Output line: true (1)

Input line: Please tell me: is the molecule `CC[C@@]1(O)C(=O)OCc2c1cc1n(c2=O)Cc2c-1nc1ccccc1c2CNc1ccc(F)cc1` at or over 7 in terms of pIC50?
Output line: true (1)

Input line: Please tell me: is the molecule `CC(=O)O[C@H]1C(=O)[C@@]2(C)[C@H]([C@H](OC(=O)c3ccccc3)[C@]3(O)C[C@H](OC(=O)[C@H](O)[C@@H](NC(=O)c4ccccc4)c4ccccc4)C(C)=C1C3(C)C)[C@]1(OC(C)=O)CO[C@@H]1C[C@@H]2O` at or over 7 in terms of pIC50?
Output line: false (0)

###

- Method Notes: cells
- Condition Set: Homo sapiens, KBVIN, 72 h
Parameter Measured: IC50 (nM)
Give a bare numeral; the unit nM is implied.

Input line: Identify the reported IC50 for the following entry. `CC[C@@]1(O)C(=O)OCc2c1cc1n(c2=O)Cc2c-1nc1ccccc1c2CNCc1ccccc1`
Output line: 117

Input line: Identify the reported IC50 for the following entry. `CC[C@@]1(O)C(=O)OCc2c1cc1n(c2=O)Cc2c-1nc1ccccc1c2CN1CCN(C)CC1`
Output line: 274

Input line: Identify the reported IC50 for the following entry. `CC[C@@]1(O)C(=O)OCc2c1cc1n(c2=O)Cc2c-1nc1ccccc1c2CN1CCCCC1`
Output line: 20.5

Input line: Identify the reported IC50 for the following entry. `CC[C@@]1(O)C(=O)OCc2c1cc1n(c2=O)Cc2c-1nc1ccccc1c2CNc1ccccn1`
Output line: 70.6

Input line: Identify the reported IC50 for the following entry. `CC[C@@]1(O)C(=O)OCc2c1cc1n(c2=O)Cc2c-1nc1ccccc1c2CNc1ccccc1Cl`
Output line: 12.8

Input line: Identify the reported IC50 for the following entry. `CC[C@@]1(O)C(=O)OCc2c1cc1n(c2=O)Cc2c-1nc1ccccc1c2CNc1cccc(Cl)c1`
Output line: 68.8

Input line: Identify the reported IC50 for the following entry. `CC[C@@]1(O)C(=O)OCc2c1cc1n(c2=O)Cc2c-1nc1ccccc1c2CNc1ccc(Cl)cc1`
Output line: 12.9

Input line: Identify the reported IC50 for the following entry. `CC[C@@]1(O)C(=O)OCc2c1cc1n(c2=O)Cc2c-1nc1ccccc1c2CNC1CCCCC1`
Output line: 16.5

Input line: Identify the reported IC50 for the following entry. `CC[C@@]1(O)C(=O)OCc2c1cc1n(c2=O)Cc2c-1nc1ccccc1c2CNc1ccccc1OC`
Output line: 14.9

Input line: Identify the reported IC50 for the following entry. `CCCNCc1c2c(nc3ccccc13)-c1cc3c(c(=O)n1C2)COC(=O)[C@]3(O)CC`
Output line: 21.7

Input line: Identify the reported IC50 for the following entry. `CC[C@@]1(O)C(=O)OCc2c1cc1n(c2=O)Cc2c-1nc1ccccc1c2CNc1ccc(OC)cc1`
Output line: 77.3

Input line: Identify the reported IC50 for the following entry. `CC[C@@]1(O)C(=O)OCc2c1cc1n(c2=O)Cc2c-1nc1ccccc1c2CN1CCCC1`
Output line: 20.8

Input line: Identify the reported IC50 for the following entry. `CC[C@@]1(O)C(=O)OCc2c1cc1n(c2=O)Cc2c-1nc1ccccc1c2CN(C(C)C)C(C)C`
Output line: 1060
